Reported IC50 values for the following compounds.
- Test system: CAKI-1
- assayProcedure: Tested for the inhibition of extraneuronal [3H]norepinephrine uptake in Caki-1 cells
- Format: functional, cell-based
- conditionLabel: Homo sapiens, CAKI-1, 15 min
Numbers only; they are read as nM.

| compound | targetOfAssay | IC50 [nM] |
| --- | --- | --- |
| CCN1/C(=C\c2cc[n+](CC)c3ccccc23)C=Cc2ccccc21 | CAKI-1 | 29 |
| C[n+]1c(Cc2ccc3ccccc3[n+]2C)ccc2ccccc21 | CAKI-1 | 94 |
| CC(C)[n+]1ccc(/C=C2/C=Cc3ccccc3N2C)c2ccccc21 | CAKI-1 | 51 |
| CC(C)N1/C(=C\c2cc[n+](C(C)C)c3ccccc23)C=Cc2ccccc21 [DISPROCYNIUM24] | CAKI-1 | 14 |
| CC[n+]1c(Cc2ccc3ccccc3[n+]2C(C)C)ccc2ccccc21 | CAKI-1 | 13 |
| CC[n+]1c(Cc2ccc3ccccc3[n+]2CC)ccc2ccccc21 | CAKI-1 | 12 |

We next turn to a different compound, shown below.
// query Write down IC50 measured for item `CN1C=C/C(=C/c2ccc3ccccc3[n+]2C)c2ccccc21`
// result 100

###

- assayProcedure: Partition coefficient (logP)
- Format: physicochemical
- conditionLabel: octanol/water
Reported logP values for the following compounds.
// no unit, no text: just the number

| querySmiles | logP |
| --- | --- |
| CC(C)N1/C(=C\c2cc[n+](C(C)C)c3ccccc23)C=Cc2ccccc21 | 1.16 |
| CCN1/C(=C\c2cc[n+](CC)c3ccccc23)C=Cc2ccccc21 | 0.86 |
| CC(C)[n+]1ccc(/C=C2/C=Cc3ccccc3N2C)c2ccccc21 | 0.92 |
| CC[n+]1c(Cc2ccc3ccccc3[n+]2CC)ccc2ccccc21 | 0.65 |
| CC[n+]1c(Cc2ccc3ccccc3[n+]2C(C)C)ccc2ccccc21 | 0.84 |
| CN1C=C/C(=C/c2ccc3ccccc3[n+]2C)c2ccccc21 | 0.81 |

We next turn to a different compound, shown below.
// query Write down logP measured for item `C[n+]1c(Cc2ccc3ccccc3[n+]2C)ccc2ccccc21`
// result 0.34
